Source of measurements: paper PMC11769294

# Test system: OVCAR-5 (Ovarian Cancer)
# TEST NAME: NCI60 screen (SRB)
# Format: cell-based, human
# CONDITION DETAILS: one dose 10 µM, 48 h
Can you tell me growth percent for the items I'm about to list?

COc1cc(/C=C/C(/C=C/c2cc(OC)c(OC)c(OC)c2)n2ccnc2)cc(OC)c1OC = 129.83%

Items follow; give growth percent for each.
1. COc1ccc(/C=C/C(c2cc(OC)c(OC)c(OC)c2)n2cncn2)cc1O (centres unmarked) [Compound 22b]
2. COc1ccc(C2CC(n3ccnc3)c3cc(OC)c(OC)c(OC)c32)cc1O (centres unmarked) [Compound 27a]
3. COc1ccc(/C=C/C(c2cc(OC)c(OC)c(OC)c2)n2ccnc2)cc1O (centres unmarked) [Compound 23b]
4. COc1ccc(/C=C/C(c2cc(OC)c(OC)c(OC)c2)n2cncn2)cc1 (centres unmarked) [Compound 22a]

1: 86.55%; 2: 106.81%; 3: 102.8%; 4: 90.16%
